biological target: human B7-H3 expressed on A375 tumor cells (human) (UniProt Q5ZPR3); experiment: flow cytometry on A375 cells, MFI(PE); unit from the axis Conc (nM)
PARAMETER: pEC50
Note on units: pEC50 is unitless, being -log10 of a concentration expressed in mol/L.

Before answering, review these 3 worked examples.
MGA017 (antibody, from a related filing, V domains shown) VH: EVQLVESGGGLVKPGGSLRLSCAASGFTFSSYGMSWVRQAPGKGLEWVATINSGGSNTYYPDSLKGRFTISRDNAKNSLYLQMNSLRAEDTAVYYCARHDGGAMDYWGQGTTVTVSS VL: DIQMTQSPSSLSASVGDRVTITCRASESIYSYLAWYQQKPGKAPKLLVYNTKTLPEGVPSRFSGSGSGTDFTLTISSLQPEDFATYYCQHHYGTPPWTFGQGTRLEIK : 9.52
72D1D11-z8 (antibody, V domains shown) VH: QVQLVQSGSELKKPGASVKVSCKASGYTFTNLGLNWVRQAPGQGLEWMGWINTAGGQPTYAEDFKGRCVFSLDTSVSTAYLQISSLKAEDTAVYYCARDDGYYYTMDYWGQGTTVTVSS VL: DIVMTQSPLSLPVTPGEPASISCRSSQSLVHSNGKTYLHWYLQKPGQSPQLLIYKVSNRFSGVPDRFSGSGSGTDFTLKISRVEAEDVGVYFCSQSTHVPWTFGGGTKLEIK : 9.34
72D1D11-z7 (antibody, V domains shown) VH: QVQLVQSGSELKKPGASVKVSCKASGYTFTNLGLNWVRQAPGQGLEWMGWINTAGGQPTYAEDFKGRCVFSLDTSVSTAYLQISSLKAEDTAVYYCARDDGYYYTMDYWGQGTTVTVSS VL: DIVMTQSPLSLPVTPGEPASISCRSSQSLVHSNGKTYLHWYLQKPGQSPQLLIYKVSNRFSGVPDRFSGSGSGTDFTLKISRVEAEDVGVYYCSQSTHVPWTFGGGTKLEIK : 9.28

Let us examine a further case.
Query :: Give the measured pEC50 of 72D1D11-z6 (antibody, V domains shown) VH: QVQLVQSGSELKKPGASVKVSCKASGYTFTNLGLNWVRQAPGQGLEWMGWINTAGGQPTYAEDFKGRCVFSLDTSVSTAYLQISSLKAEDTAVYYCARDDGYYYTMDYWGQGTTVTVSS VL: DIVMTQTPLSLPVTPGEPASISCRSSQSLVHSNGKTYLHWYLQKPGQSPQLLIYKVSNRFSGVPDRFSGSGSGTDFTLKISRVEAEDVGVYFCSQSTHVPWTFGGGTKLEIK .
Result :: 9.27
